Listed molecules paired with reported selectivity ratio
Experiment: Selectivity index, ratio of IC50 for african green monkey Vero cells to IC50 for chloroquine-resistant Plasmodium falciparum W2
Type: toxicity, cell-based
Details: Vero cells versus Plasmodium falciparum W2, read-out: Ratio IC50

Please review the entries below; each comes with its answer.
COc1cc(NC(C)CCCNC(=O)C[C@H](NC(=O)[C@@H](N)CCCN)C(=O)O)c2nc(C(C)(C)C)ccc2c1 (stereo partly drawn); > 7.9
COc1cc(NC(C)CCCNC(=O)[C@@H](CCCCN)NC(=O)[C@H](N)CCCCN)c2nc(C(C)(C)C)ccc2c1 (stereo partly drawn); > 8.5
COc1cc(NC(C)CCCNC(=O)[C@H](CCCCN)NC(=O)[C@@H](N)CCCCN)c2nc(C(C)(C)C)ccc2c1 (stereo partly drawn); > 59.5
COc1cc(NC(C)CCCNC(=O)NCCC[C@@H](N)C(=O)O)c2nc(C(C)(C)C)ccc2c1 (stereo partly drawn); 5
COc1cc(NC(C)CCCNC(=O)C[C@H](NC(=O)[C@@H](N)CCCNC(=N)N)C(=O)O)c2nc(C(C)(C)C)ccc2c1 (stereo partly drawn); > 8.5
COc1cc(NC(C)CCCNC(=O)[C@H](CCCNC(=N)N)NC(=O)[C@@H](N)CCCNC(=N)N)c2nc(C(C)(C)C)ccc2c1 (stereo partly drawn); > 29
COc1cc(NC(C)CCCNC(=O)[C@H](CCCCN)NC(=O)[C@@H](N)CCCCN)c2ncccc2c1 (stereo partly drawn); > 8.5

selectivity ratio reading for COc1cc(NC(C)CCCNC(=O)[C@@H](CCCN)NC(=O)[C@H](N)CCCN)c2nc(C(C)(C)C)ccc2c1 (stereo partly drawn) : > 7.21

----------
System: Plasmodium falciparum
Experiment: Antimalarial activity against chloroquine-sensitive Plasmodium falciparum D6 assessed as plasmodial LDH activity
Assay type: functional, organism-based
property.name: IC50

Examples with their reported IC50 follow.
COc1cc(NC(C)CCCNC(=O)CC[C@@H](NC(=O)[C@H](N)CCCCN)C(=O)O)c2nc(C(C)(C)C)ccc2c1 (stereo not given in full); Not Active
COc1cc(NC(C)CCCNC(=O)CC[C@H](NC(=O)[C@@H](N)CCCN)C(=O)O)c2nc(C(C)(C)C)ccc2c1 (stereo not given in full); Not Active
COc1cc(NC(C)CCCNC(=O)[C@H](CCCN)NC(=O)[C@@H](N)CCCN)c2ncccc2c1 (stereo not given in full); Not Active
COc1cc(NC(C)CCCNC(=O)CC[C@@H](NC(=O)[C@H](N)CCCNC(=N)N)C(=O)O)c2ncccc2c1 (stereo not given in full); Not Active
COc1cc(NC(C)CCCNC(=O)CC[C@@H](NC(=O)[C@H](N)CCCN)C(=O)O)c2nc(C(C)(C)C)ccc2c1 (stereo not given in full); Not Active
COc1cc(NC(C)CCCNC(=O)CC[C@@H](NC(=O)[C@H](N)CCCNC(=N)N)C(=O)O)c2nc(C(C)(C)C)ccc2c1 (stereo not given in full); Not Active
COc1cc(NC(C)CCCNC(=O)CC[C@H](NC(=O)[C@@H](N)CCCCN)C(=O)O)c2nc(C(C)(C)C)ccc2c1 (stereo not given in full); Not Active
COc1cc(NC(C)CCCNC(=O)[C@@H](CCCNC(=N)N)NC(=O)[C@H](N)CCCNC(=N)N)c2nc(C(C)(C)C)ccc2c1 (stereo not given in full); Not Active
COc1cc(NC(C)CCCNC(=O)CC[C@H](NC(=O)[C@@H](N)CCCN)C(=O)O)c2ncccc2c1 (stereo not given in full); Not Active
COc1cc(NC(C)CCCNC(=O)C[C@@H](NC(=O)[C@H](N)CCCCN)C(=O)O)c2nc(C(C)(C)C)ccc2c1 (stereo not given in full); Not Active

Entry COc1cc(NC(C)CCCNC(=O)NCCCC[C@H](N)C(=O)O)c2nc(C(C)(C)C)ccc2c1 (stereo not given in full) , IC50 reported as Not Active

Measured IC50, COc1cc(NC(C)CCCNC(=O)CC[C@@H](NC(=O)[C@H](N)CCCCN)C(=O)O)c2ncccc2c1 (stereo not given in full) : Not Active

Given item COc1cc(NC(C)CCCNC(=O)CC[C@@H](NC(=O)[C@H](N)CCCN)C(=O)O)c2ncccc2c1 (stereo not given in full) , the value recorded as its IC50 is Not Active

----------
Test: Selectivity index, ratio of IC50 for african green monkey Vero cells to IC50 for chloroquine-resistant Plasmodium falciparum W2
Assay type: toxicity, cell-based
Conditions: Vero cells versus Plasmodium falciparum W2, read-out: Ratio IC50
property.name: selectivity ratio

Answered cases to consult:
COc1cc(NC(C)CCCNC(=O)C[C@@H](NC(=O)[C@H](N)CCCN)C(=O)O)c2nc(C(C)(C)C)ccc2c1 (stereo partly drawn); > 7
COc1cc(NC(C)CCCNC(=O)C[C@H](NC(=O)[C@@H](N)CCCCN)C(=O)O)c2nc(C(C)(C)C)ccc2c1 (stereo partly drawn); > 8.5
COc1cc(NC(C)CCCNC(=O)[C@H](CCCN)NC(=O)[C@@H](N)CCCN)c2nc(C(C)(C)C)ccc2c1 (stereo partly drawn); > 11.9

The reported selectivity ratio of the compound COc1cc(NC(C)CCCNC(=O)C[C@@H](NC(=O)[C@H](N)CCCCN)C(=O)O)c2ncccc2c1 (stereo partly drawn) was > 7.4

So, COc1cc(NC(C)CCCNC(=O)CC[C@H](NC(=O)[C@@H](N)CCCNC(=N)N)C(=O)O)c2nc(C(C)(C)C)ccc2c1 (stereo partly drawn) ? Its selectivity ratio was > 11.9

COc1cc(NC(C)CCCNC(=O)CC[C@H](NC(=O)[C@@H](N)CCCNC(=N)N)C(=O)O)c2ncccc2c1 (stereo partly drawn) yielded selectivity ratio of > 13.2

The compound COc1cc(NC(C)CCCNC(=O)C[C@@H](NC(=O)[C@H](N)CCCNC(=N)N)C(=O)O)c2ncccc2c1 (stereo partly drawn) showed selectivity ratio equal to > 5.6

For reference, reported selectivity ratio for COc1cc(NC(C)CCCNC(=O)C[C@H](NC(=O)[C@@H](N)CCCCN)C(=O)O)c2ncccc2c1 (stereo partly drawn) stands at > 91.5

----------
Assay: Inhibition of beta-hematin formation
Format: functional
IC50 vs 100 µM: less than gives 1 (yes); not less than gives 0 (no).

COc1cc(NC(C)CCCN)c2nc(C(C)(C)C)ccc2c1 (configuration not stated); 1 (yes)

stdin: Please let me know if COc1cc(NC(C)CCCNC(=O)[C@H](CCCCN)NC(=O)[C@@H](N)CCCCN)c2ncccc2c1 (some centres not stated) shows IC50 below 100 µM.
stdout: 0 (no)

stdin: Given the entry COc1cc(NC(C)CCCNC(=O)CC[C@H](NC(=O)[C@@H](N)CCCCN)C(=O)O)c2nc(C(C)(C)C)ccc2c1 (some centres not stated) , would its reported IC50 be below 100 µM?
stdout: 0 (no)

stdin: Lab note: confirm whether the reported IC50 for this molecule is below 100 µM, equality not counting. molecule: COc1cc(NC(C)CCCNC(=O)[C@H](CCCNC(=N)N)NC(=O)[C@@H](N)CCCNC(=N)N)c2nc(C(C)(C)C)ccc2c1 (some centres not stated)
stdout: 1 (yes)

stdin: Hello, is IC50 of the following molecule strictly smaller than 100 µM? COc1cc(NC(C)CCCNC(=O)C[C@@H](NC(=O)[C@H](N)CCCNC(=N)N)C(=O)O)c2nc(C(C)(C)C)ccc2c1 (some centres not stated)
stdout: 0 (no)

stdin: # strict comparison: is reported IC50 < 100 µM? input = COc1cc(NC(C)CCCNC(=O)CC[C@@H](NC(=O)[C@H](N)CCCNC(=N)N)C(=O)O)c2ncccc2c1 (some centres not stated)
stdout: 0 (no)

stdin: Determine if COc1cc(NC(C)CCCNC(=O)CC[C@H](NC(=O)[C@@H](N)CCCNC(=N)N)C(=O)O)c2nc(C(C)(C)C)ccc2c1 (some centres not stated) shows IC50 strictly lower than 100 µM.
stdout: 1 (yes)

----------
Test: Selectivity index, ratio of IC50 for african green monkey Vero cells to IC50 for chloroquine-sensitive Plasmodium falciparum D6
Format: toxicity, cell-based
Conditions: Vero cells versus Plasmodium falciparum D6, read-out: Ratio IC50
property.name: selectivity ratio

COc1cc(NC(C)CCCNC(=O)CC[C@H](NC(=O)[C@@H](N)CCCNC(=N)N)C(=O)O)c2nc(C(C)(C)C)ccc2c1 (some centres undefined); > 10.3
COc1cc(NC(C)CCCNC(=O)CC[C@H](NC(=O)[C@@H](N)CCCNC(=N)N)C(=O)O)c2ncccc2c1 (some centres undefined); > 13.2
COc1cc(NC(C)CCCNC(=O)C[C@H](NC(=O)[C@@H](N)CCCCN)C(=O)O)c2nc(C(C)(C)C)ccc2c1 (some centres undefined); > 6.2

Lab book: selectivity ratio of COc1cc(NC(C)CCCNC(=O)[C@@H](CCCN)NC(=O)[C@H](N)CCCN)c2nc(C(C)(C)C)ccc2c1 (some centres undefined) noted as > 5

The molecule listed as COc1cc(NC(C)CCCNC(=O)C[C@@H](NC(=O)[C@H](N)CCCNC(=N)N)C(=O)O)c2nc(C(C)(C)C)ccc2c1 (some centres undefined) shows selectivity ratio equal to > 13.2

// recorded selectivity ratio for COc1cc(NC(C)CCCNC(=O)NCCC[C@@H](N)C(=O)O)c2nc(C(C)(C)C)ccc2c1 (some centres undefined) : > 5.5

# selectivity ratio (molecule: COc1cc(NC(C)CCCNC(=O)C[C@H](NC(=O)[C@@H](N)CCCN)C(=O)O)c2nc(C(C)(C)C)ccc2c1 (some centres undefined) ) is > 8.8

So for COc1cc(NC(C)CCCNC(=O)C[C@@H](NC(=O)[C@H](N)CCCCN)C(=O)O)c2ncccc2c1 (some centres undefined) , the logged selectivity ratio turned out to be > 9.9
